B1: Pistol ribozyme (parent)
chain: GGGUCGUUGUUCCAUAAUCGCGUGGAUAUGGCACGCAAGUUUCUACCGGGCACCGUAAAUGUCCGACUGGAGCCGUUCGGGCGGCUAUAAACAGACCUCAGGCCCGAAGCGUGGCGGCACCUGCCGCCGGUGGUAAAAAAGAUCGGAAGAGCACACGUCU

Variants of: B1
Protocol summary: aptazyme ON/OFF ratio, guanine; higher = stronger switching; co-transcriptional cleavage with and without guanine
Outcome measure: aptazyme ON/OFF ratio
Answers are plain numbers.

// solved cases for aptazyme ON/OFF ratio follow
U7G U8A U11C C12A C13G | 1.36
U7G U8A U11C C12U C13A | 1.32
U7C U8A G9C U11A C13G | 1.06

For every item below, please supply its aptazyme ON/OFF ratio.
1. U7C U8C G9C U10G U11C C12U C13G
2. U7C U8G G9C U10G
3. U7A U8G U10C C12G
4. U7A U8G G9A U10G U11A C12U C13G
5. U11G C12U C13U
6. U8G G9U U10A U11A C12G C13A

1. 1.14
2. 1.47
3. 1.12
4. 1.35
5. 1.11
6. 1.2

For every item below, please supply its aptazyme ON/OFF ratio.
1. U7A U8A U10A U11A C12U C13A
2. U8A G9C U10G C13A
3. U7G G9A U10C U11C C12U
4. U7C U8G U10G U11C C12G
5. U7A U8A G9C U10A U11A C13A

1: 1.33; 2: 1.38; 3: 1.07; 4: 1.55; 5: 1.23
